test: H1N1 influenza NS1A inhibitors, functional cell based assay (AID 504329); settings: percent inhibition, at 12.5 µM, stronger effect = higher value
The campaign covered roughly 340,000 compounds. About 1,000 (0.29%) were called active. Only a sample is shown. Measured potencies and affinities stand elsewhere.
readout-name: inhibition (%)
Provide the reading as a plain figure in %.

| compound | readout-name | value-observed |
| --- | --- | --- |
| Cn1c(=O)c(=O)n(C)c2cc(S(=O)(=O)NCc3ccc(Cl)cc3)ccc21 | inhibition | -12 |
| CCCNS(=O)(=O)c1cccc(C(=O)NC2CCCc3ccccc32)c1 (stereo unspecified) | inhibition | -1.43 |
| COc1ccc(-c2nc(N)n(C(=O)Cc3ccccc3)n2)cc1 | inhibition | 0.25 |
| CC(C)(C)c1ccc(C(=O)NCCCNC(=O)c2ccccn2)cc1 | inhibition | 0.93 |

Task: Dear colleague, I am looking for the recorded inhibition of the following compound: C/C(=N\NC(=O)c1ccc(Cl)cc1)c1ccccn1
Output: -5.53

Task: What do we get for CCOc1ccc(OCc2ccc(C(=O)N/N=C(\C)c3ccccn3)cc2)cc1 ?
Output: -8.32

---

experiment: H1N1 influenza NS1A inhibitors, functional cell based assay (AID 504329); conditions: percent inhibition, at 12.5 µM, stronger effect = higher value
The whole screen tested about 340,000 compounds, of which about 1,000 (0.29%) were called active. These entries were drawn from the full list. Results with a measured potency or affinity are listed apart.
readout-name: inhibition

| compound | inhibition |
| --- | --- |
| COc1cc(OC)c(OC)cc1/C=N/NC(=O)C[n+]1ccccc1 | -11.7% (inactive) |
| O=C(CCNC(=O)N1CC(=O)Nc2ccccc21)Nc1ccc(Cl)cc1 | -4.42% (inactive) |
| COc1cc(OC)c([N+](=O)[O-])cc1/C=N/NC(=O)c1ccncc1 | 1.29% (inactive) |
| CC(=O)Nc1cc(C(=O)OCC(=O)c2ccc(C)cc2)ccc1C | 2.61% (inactive) |
| COc1cccc(/C=N/NC(=O)C(=O)NCc2cccnc2)c1OC | -5.14% (inactive) |

Task: Sample COC1CCCCC1NS(=O)(=O)c1ccccc1 (stereo unspecified) — what was its inhibition?
Output: 1.39% (inactive)

Task: Would you mind doing Cc1cc(C)cc(NC(=O)COC(=O)CCc2ccc(S(=O)(=O)N3CCOCC3)cc2)c1 as well?
Output: 3.45% (inactive)

---

# inhibition annotations
test: H1N1 influenza NS1A inhibitors, functional cell based assay (AID 504329); conditions: percent inhibition, at 12.5 µM, stronger effect = higher value
Hit rate of the full screen: of about 340,000 compounds, about 1,000 (0.29%) were called active. Only a sample is shown. Entries with a potency or affinity are not part of this list.
Write down the numeric answer in % and omit the unit.

// known answers, use as guide
| molecule | value-observed |
| --- | --- |
| Cc1cccc(NS(=O)(=O)c2cccc(C(=O)N3CCN(C/C=C/c4ccccc4)CC3)c2)c1 | -7.79 |
| C=CCc1c(C)nc(C)nc1N/N=C/c1ccccc1 | -4.1 |
| CC(=O)c1ccc(N=c2scc(C)n2C(C)C)cc1 | 2.71 |
| O=C(NCc1cc(C(F)(F)F)ccc1F)C1CCC(=O)N(C2CC2)C1 (stereo unspecified) | -6.88 |
| Cc1cccc(OC(=O)c2cccnc2)c1C | -8.58 |

Task: Name the reported inhibition value associated with the molecule CC(=O)c1cccc(NC(=O)CSc2ccc(-c3sc(C)nc3C)nn2)c1
Output: -5.12

Task: Next entry: Oc1ccc(/C=N/Nc2nccnc2Cl)cc1
Output: 5.54

Task: # iterate: CSC1=NCCN1C(=O)c1c(-c2c(F)cccc2Cl)noc1C
Output: -23.1

Task: Next record, please: CC(OC(=O)c1ncc(Cl)c(Cl)c1Cl)C(=O)NC1CCCCC1C (stereo unspecified)
Output: -15.4

Task: Field entry: Oc1ccc(/C=N/Nc2ccnc3cc(Cl)ccc23)c(O)c1
Output: -16

Task: Now this one: CC(=O)Nc1ccc(OCc2ccccc2)cc1[N+](=O)[O-]
Output: -2.5

Hey, just so you know, these numbers are from PubChem BioAssay AID504329.
